# method: Pharmacokinetic profile in rats, subcutaneous
# Type: in vivo
# experimental_context: Sprague Dawley (CD), rat, sc, male rats, 1 mg/kg, plasma
*1 amine or outer side, *2 acyl side, *3 side chain or, on linkers, in order; H or OH if unused. Where a SMILES comes first, the peptide text is derived from it. Side-chain parts run from the residue outwards. [ ]: non-standard residue; d: D form. The star is where a group is joined. Ethylenediamine = C(CN[*:2])N[*:1]; Hyp = O=C(O)[C@@H]1C[C@@H](O)CN1; Phg = N[C@H](C(=O)O)c1ccccc1; CO = O=C([*:1])[*:2]; Bn = c1ccc(C*)cc1
measure_name: AUC(0-t) (ng·h/mL)
Answer format: numeric, ng·h/mL implied, no suffix.

Item under review: NCCCC[C@@H]1NC(=O)[C@@H](Cc2c[nH]c3ccccc23)NC(=O)[C@H](c2ccccc2)NC(=O)[C@@H]2C[C@@H](OC(=O)NCCN)CN2C(=O)[C@H](Cc2ccccc2)NC(=O)[C@H](Cc2ccc(OCc3ccccc3)cc2)NC1=O [PASIREOTIDE, reference compound] (cyclo([Hyp]([CO-Ethylenediamine])[Phg][dW]KY(Bn)F)) . Reported AUC(0-t)? 2780
